Provenance of the data: ChEMBL document CHEMBL1212895

- Target or system: Estrogen receptor (Homo sapiens)
- Settings: MCF7, 10 uM
Readout: inhibition (%)
Give bare numbers, in %.

Molecular string	Target or system	inhibition / %
CC1(C)C=Cc2c(ccc3c(=O)c(-c4ccc(O)cc4)coc23)O1	Estrogen receptor (Homo sapiens)	54.6

Answer for every listed entry: what is its inhibition? The entries follow.
1. CC(C)Oc1ccc2c(=O)c(-c3ccc(O)cc3)coc2c1
2. O=c1c(-c2ccc(O)cc2)coc2cc(OC3CCCC3)ccc12
3. CC(C)COc1ccc2c(=O)c(-c3ccc(O)cc3)coc2c1
4. O=c1c(-c2ccc(O)cc2)coc2cc(O)ccc12

Result string:
[33.4, 54.1, 60.5, 17.2]
